Target or system: human PD-L1 (human) (UniProt Q9NZQ7)
Sequence (Q9NZQ7 19-290): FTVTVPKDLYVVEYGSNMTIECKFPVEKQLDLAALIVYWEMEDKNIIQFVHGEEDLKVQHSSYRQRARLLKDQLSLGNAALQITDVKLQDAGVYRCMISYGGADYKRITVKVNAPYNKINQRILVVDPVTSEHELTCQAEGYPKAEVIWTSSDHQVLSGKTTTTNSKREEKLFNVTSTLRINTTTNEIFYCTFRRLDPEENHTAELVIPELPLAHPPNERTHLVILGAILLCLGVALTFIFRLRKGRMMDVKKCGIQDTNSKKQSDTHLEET
Assay details: flow cytometry, CHO/PD-L1 cells; MFI over CD80 WT IgV-Fc
Measurement type: Fold change to WT CD80 (fold)

CD80 E35D/D46V/M47L/V68M/L85Q/E88D IgV-Fc, (EAAAK)3 linker (Fc fusion) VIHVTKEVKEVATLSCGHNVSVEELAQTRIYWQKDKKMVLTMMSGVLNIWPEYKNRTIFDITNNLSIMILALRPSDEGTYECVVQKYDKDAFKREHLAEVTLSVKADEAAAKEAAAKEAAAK ... 546
CD80 E35D/M47V/N48K/V68M/K89N IgV-Fc, EAAAK linker (Fc fusion) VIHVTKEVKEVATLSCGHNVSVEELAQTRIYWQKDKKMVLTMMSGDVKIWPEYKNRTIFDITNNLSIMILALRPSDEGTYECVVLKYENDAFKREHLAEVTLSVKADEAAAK ... 491
CD80 E35D/D46V/M47L/V68M/L85Q/E88D IgV-Fc, GS(G4S)5 linker (Fc fusion) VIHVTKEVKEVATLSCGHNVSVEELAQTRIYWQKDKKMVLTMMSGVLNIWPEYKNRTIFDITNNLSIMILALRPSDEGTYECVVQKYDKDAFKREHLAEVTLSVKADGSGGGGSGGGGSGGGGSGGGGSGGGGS ... 481
variant CD80 IgV-Fc (inert) H18L/A26N/D46E/V68M/A71G/D90G (Fc fusion) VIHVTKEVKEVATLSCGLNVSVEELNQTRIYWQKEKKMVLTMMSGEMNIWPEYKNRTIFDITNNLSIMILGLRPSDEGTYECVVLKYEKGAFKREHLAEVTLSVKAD ... 412
variant CD80 IgV-Fc (inert) H18I/A26P/E35D/M47V/V68M/A71G (Fc fusion) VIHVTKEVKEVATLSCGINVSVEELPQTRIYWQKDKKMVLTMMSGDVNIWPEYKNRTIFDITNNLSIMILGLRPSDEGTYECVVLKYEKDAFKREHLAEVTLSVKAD ... 393
